# measurement-target: Nuclear receptor coactivator 1 (Homo sapiens) (UniProt Q15788)
# Sequence (Q15788 whole entry, looked up): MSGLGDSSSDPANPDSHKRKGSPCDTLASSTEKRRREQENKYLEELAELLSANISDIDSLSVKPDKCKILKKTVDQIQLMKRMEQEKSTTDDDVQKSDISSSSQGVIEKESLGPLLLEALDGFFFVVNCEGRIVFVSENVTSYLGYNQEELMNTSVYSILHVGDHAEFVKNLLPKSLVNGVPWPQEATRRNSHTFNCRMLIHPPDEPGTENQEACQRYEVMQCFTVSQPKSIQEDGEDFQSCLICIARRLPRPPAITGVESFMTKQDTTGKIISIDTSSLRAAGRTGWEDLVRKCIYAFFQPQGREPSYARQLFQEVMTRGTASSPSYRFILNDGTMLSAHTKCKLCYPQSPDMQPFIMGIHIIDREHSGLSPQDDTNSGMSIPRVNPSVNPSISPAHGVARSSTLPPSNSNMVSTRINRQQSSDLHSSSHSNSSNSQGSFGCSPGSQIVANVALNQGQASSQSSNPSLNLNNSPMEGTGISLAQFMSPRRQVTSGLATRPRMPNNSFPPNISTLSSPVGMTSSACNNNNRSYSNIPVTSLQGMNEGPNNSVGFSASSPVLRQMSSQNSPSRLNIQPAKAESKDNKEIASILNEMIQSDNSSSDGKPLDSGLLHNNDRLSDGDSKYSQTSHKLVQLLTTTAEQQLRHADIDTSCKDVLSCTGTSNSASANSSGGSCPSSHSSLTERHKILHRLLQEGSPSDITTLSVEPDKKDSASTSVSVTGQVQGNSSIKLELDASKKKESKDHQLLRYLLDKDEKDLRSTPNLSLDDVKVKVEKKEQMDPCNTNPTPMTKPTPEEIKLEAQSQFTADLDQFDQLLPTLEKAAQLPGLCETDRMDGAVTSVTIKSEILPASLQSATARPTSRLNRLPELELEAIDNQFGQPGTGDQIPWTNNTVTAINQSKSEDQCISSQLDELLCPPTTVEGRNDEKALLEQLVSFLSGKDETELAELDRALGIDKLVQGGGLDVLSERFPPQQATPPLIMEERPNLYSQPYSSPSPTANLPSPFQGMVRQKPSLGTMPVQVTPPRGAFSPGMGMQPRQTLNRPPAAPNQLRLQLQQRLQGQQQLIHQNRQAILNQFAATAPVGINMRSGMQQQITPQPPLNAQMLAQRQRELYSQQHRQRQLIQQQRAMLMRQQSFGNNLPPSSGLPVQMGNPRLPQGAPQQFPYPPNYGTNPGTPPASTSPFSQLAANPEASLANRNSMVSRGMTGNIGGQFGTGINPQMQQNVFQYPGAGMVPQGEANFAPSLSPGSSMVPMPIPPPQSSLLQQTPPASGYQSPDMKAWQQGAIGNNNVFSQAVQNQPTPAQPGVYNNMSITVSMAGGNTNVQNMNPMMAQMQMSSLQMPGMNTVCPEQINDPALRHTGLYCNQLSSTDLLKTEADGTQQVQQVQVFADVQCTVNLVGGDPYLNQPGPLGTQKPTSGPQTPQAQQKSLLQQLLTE
# test-summary: SRC1 coactivator transcriptional activity inhibitors, confirmation, cell-based, luminescence, quadruplicate (AID 588820)
# protocol-conditions: HEK293 GAL4-SRC1 luciferase reporter, at 3.6 µM
The source made the active and inactive calls.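 Rule for the calls: active = mean inhibition above 46.68%, the untreated control wells mean plus 3 SD; inactive = the rest.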
Outcomes: active, inactive

CCCCCc1ccc(OCCC[n+]2ccccc2)c(CCCCC)c1    inactive
COC(C(=O)C(O)C(C)O)C1Cc2cc3cc(OC4CC(OC5CC(O)C(O)C(C)O5)C(O)C(C)O4)c(C)c(O)c3c(O)c2C(=O)C1OC1CC(OC2CC(OC3CC(O)C(OC)C(C)O3)C(O)C(C)O2)C(O)C(C)O1 (stereo not given)    active
CCC1(c2ccc(F)cc2)NC(=O)N(CC(=O)NCC(=O)Nc2cccc(C)c2C)C1=O (stereo not given)    inactive
CC1=C(C(=O)Nc2ccccc2C(=O)NCc2ccccc2)SCCO1    inactive
Cc1cc2nc(C3CCCCC3)c(Cc3cccc(F)c3)n2c(C)c1Br    inactive
C=C1C(=O)OC2CC1C(OC(C)=O)CC(C)=CCCC(C)=CCCC2(C)O (stereo not given)    inactive
CCC(C)c1ccc(C(C)NC(=S)NCc2ccc(F)cc2)cc1 (stereo not given)    inactive
Cc1cc(-c2nnc(SCC(=O)Nc3ccccc3C(F)(F)F)o2)c(C)n1-c1ccccc1    inactive
CC(C)(C)NC(=O)C1(C)CCC(=O)N1CCCn1ccnc1 (stereo not given)    inactive
Cc1nc(N)c(CC(Br)CBr)c(Cl)n1 (stereo not given)    inactive
